Catalogue of CC20 readings, one per entry.
# Test system: HEMn-MP cells
# experiment: Cytotoxic concentration for HEMn-MP cells depending on treatment time (CCK-8, Test Example 1-1)
# Type: cell-based, human
# condition notes: Day 1
property label: CC20 (µM)

| entry smiles | property label | assay result |
| --- | --- | --- |
| C[C@@H](O)CCc1ccc(O)cc1 | CC20 | 7100 |
| CCCCc1ccc(O)cc1O | CC20 | 170.2 |
| Oc1ccc(OCc2ccccc2)cc1 | CC20 | 178.2 |
| CC(=O)CCc1ccc(O)cc1 | CC20 | 6500 |
| COc1cc(OC)c(C23CC4CC(CC(C4)C2)C3)cc1C(=O)NCc1ccc(O)cc1O | CC20 | 3.3 |

====

Catalogue of CC50 at 24 hours readings, one per entry.
# experiment: Cytotoxic concentration for A375 cells depending on treatment time (CCK-8, Test Example 1-2)
# Type: cell-based, human
# condition notes: human, A375 cells (melanoma cell line); A375 cells, Day 1 (24 hours)
property label: CC50 at 24 hours (µM)

| molecule | property label | quantity unit | assay result |
| --- | --- | --- | --- |
| Oc1ccc(OCc2ccccc2)cc1 [MB, 4-benzyloxy-phenol] | CC50 at 24 hours | µM | 295 |
| COc1cc(OC)c(C23CC4CC(CC(C4)C2)C3)cc1C(=O)NCc1ccc(O)cc1O [AP] | CC50 at 24 hours | µM | 33.8 |
| CC(=O)CCc1ccc(O)cc1 [RK, raspberry ketone] | CC50 at 24 hours | µM | 10700 |
| CCCCc1ccc(O)cc1O [RC, 4-butylresorcinol] | CC50 at 24 hours | µM | 508 |

====

Catalogue of CC50 at 3 days readings, one per entry.
# experiment: Cytotoxic concentration for A375 cells depending on treatment time (CCK-8, Test Example 1-2)
# Format: cell-based, human
# condition notes: human, A375 cells (melanoma cell line); A375 cells, Day 3

| molecule | CC50 at 3 days |
| --- | --- |
| COc1cc(OC)c(C23CC4CC(CC(C4)C2)C3)cc1C(=O)NCc1ccc(O)cc1O [AP] | 20 µM |
| Oc1ccc(OCc2ccccc2)cc1 [MB, 4-benzyloxy-phenol] | 7.19 µM |
| CCCCc1ccc(O)cc1O [RC, 4-butylresorcinol] | 122 µM |
| CC(=O)CCc1ccc(O)cc1 [RK, raspberry ketone] | 790 µM |

====

# Test system: A375 cells
# experiment: Cytotoxic concentration for A375 cells depending on treatment time (CCK-8, Test Example 1-2)
# Type: cell-based, human
# condition notes: A375 cells, Day 1 (24 hours)
property label: log10 of CC20 (log10 of the value in µM)

| entry smiles | log10 of CC20 |
| --- | --- |
| COc1cc(OC)c(C23CC4CC(CC(C4)C2)C3)cc1C(=O)NCc1ccc(O)cc1O | 1.41 |
| CC(=O)CCc1ccc(O)cc1 | 3.83 |
| Oc1ccc(OCc2ccccc2)cc1 | 2.08 |
| C[C@@H](O)CCc1ccc(O)cc1 | 3.62 |
| CCCCc1ccc(O)cc1O | 2.50 |

====

# Test system: HEMn-MP cells
# experiment: Inhibition of melanin production in HEMn-MP cells and correlation factor with cytotoxic concentration (Test Example 2)
# Format: cell-based, human
# condition notes: Homo sapiens, 168 h; HEMn-MP cells, day 7; read-out: EC50 (50% inhibitory concentration of melanin synthesis)

| entry smiles | EC50 / µM |
| --- | --- |
| COc1cc(OC)c(C23CC4CC(CC(C4)C2)C3)cc1C(=O)NCc1ccc(O)cc1O | 0.11 |
| CCCCc1ccc(O)cc1O | 2.7 |
| CC(=O)CCc1ccc(O)cc1 | 970 |
| Oc1ccc(OCc2ccccc2)cc1 | 6.8 |

====

Catalogue of CC20/EC50 readings, one per entry.
# Tested on: HEMn-MP cells
# experiment: Inhibition of melanin production in HEMn-MP cells and correlation factor with cytotoxic concentration (Test Example 2)
# Type: cell-based, human
# condition notes: HEMn-MP cells, day 7; 20% cytotoxic concentration divided by EC50 of melanin production

| entry smiles | qualifier sign | CC20/EC50 / Fold |
| --- | --- | --- |
| Oc1ccc(OCc2ccccc2)cc1 | = | 1.3 |
| COc1cc(OC)c(C23CC4CC(CC(C4)C2)C3)cc1C(=O)NCc1ccc(O)cc1O | = | 11.8 |
| C[C@@H](O)CCc1ccc(O)cc1 | = | 0.8 |
| CC(=O)CCc1ccc(O)cc1 | = | 0.4 |
| CCCCc1ccc(O)cc1O | > | 20 |

====

# Tested on: A375 cells
# experiment: Cytotoxic concentration for A375 cells depending on treatment time (CCK-8, Test Example 1-2)
# Type: cell-based, human
# condition notes: A375 cells, Day 1 (24 hours)
property label: CC50 (mM)

| entry smiles | assay result |
| --- | --- |
| C[C@@H](O)CCc1ccc(O)cc1 | 8.4 |

====

# System: HEMn-MP cells
# experiment: Cytotoxic concentration for HEMn-MP cells depending on treatment time (CCK-8, Test Example 1-1)
# Format: cell-based, human
# condition notes: Day 7

| entry smiles | CC20, µM |
| --- | --- |
| COc1cc(OC)c(C23CC4CC(CC(C4)C2)C3)cc1C(=O)NCc1ccc(O)cc1O | 1.3 |
| CC(=O)CCc1ccc(O)cc1 | 400 |
| CCCCc1ccc(O)cc1O | 69.7 |
| C[C@@H](O)CCc1ccc(O)cc1 | 1000 |
| Oc1ccc(OCc2ccccc2)cc1 | 8.9 |

====

# experiment: Cytotoxic concentration for HEMn-MP cells depending on treatment time (CCK-8, Test Example 1-1)
# Assay type: cell-based, human
# condition notes: human, HEMn-MP cells (human epidermal melanocytes), Day 7
# Method: The HEMn-MP (human epidermal melanocytes, neonatal, moderately pigmented donor, Cat. No. C-102-5C) cells were purchased from Life Technologies (USA). […] Then, cytotoxicity was measured after a predetermined time. Cytotoxicity was measured with Cell Counting Kit-8 (CCK-8) manufactured by Dojindo Molecular Technologies (USA). […] After incubation at 37° C. for about 2 hours, absorbance of 100 μL of the medium was measured at 450 nm using an ELISA reader. […]
property label: CC50 at 7 days (µM)

| entry smiles | property label | assay result |
| --- | --- | --- |
| Oc1ccc(OCc2ccccc2)cc1 | CC50 at 7 days | 19 |
| CC(=O)CCc1ccc(O)cc1 | CC50 at 7 days | 1400 |
| CCCCc1ccc(O)cc1O | CC50 at 7 days | 284 |
| COc1cc(OC)c(C23CC4CC(CC(C4)C2)C3)cc1C(=O)NCc1ccc(O)cc1O | CC50 at 7 days | 2.5 |

====

Catalogue of CC20 readings, one per entry.
# Tested on: A375 cells
# experiment: Cytotoxic concentration for A375 cells depending on treatment time (CCK-8, Test Example 1-2)
# Format: cell-based, human
# condition notes: A375 cells, Day 3
# Protocol: The A375 (human melanoma cell line) cells were purchased from the ATCC (Cat. No. CRL-1619, USA). As a cell culture medium, DMEM (Cat. No. 12-604, Lonza, USA) supplemented with 10% FBS (Cat. No. 16000-044, Gibco, USA) was used. […] Cytotoxicity was measured with Cell Counting Kit-8 (CCK-8) manufactured by Dojindo Molecular Technologies (USA). […] After incubation at 37° C. for about 2 hours, absorbance of 100 μL of the medium was measured at 450 nm using an ELISA reader. […]
property label: CC20 (µM)

| entry smiles | assay result |
| --- | --- |
| CCCCc1ccc(O)cc1O | 52.73 |
| C[C@@H](O)CCc1ccc(O)cc1 | 190 |
| Oc1ccc(OCc2ccccc2)cc1 | 2.31 |
| CC(=O)CCc1ccc(O)cc1 | 240 |
| COc1cc(OC)c(C23CC4CC(CC(C4)C2)C3)cc1C(=O)NCc1ccc(O)cc1O | 17.2 |
